# measurement protocol: Clearance in rat liver microsomes
# Type: ADME, Microsome
# details: read-out: CLH
measured property: microsomal CLint (µL/min/mg)
Write down the numeric answer in µL/min/mg and omit the unit.

Field: example entries. Status: answers known.
| compound | measured property | assay result |
| --- | --- | --- |
| COc1cc2nncc(-c3ccc(N4CCC(O)(c5ccccn5)CC4)nc3)c2cc1OC | microsomal CLint | 28 |
| COc1cc2nncc(-c3ccc(N4CC(OC)C4)nc3)c2cc1OC | microsomal CLint | 76 |

Moving on to another molecule below.
Prompt: For the molecule COC[C@H](C)Nc1ccc(-c2cnnc3cc(OC)c(OC)cc23)cn1 , give its measured microsomal CLint value.
Completion: 51
